tested on: Panc 05.04 cells (pancreatic cancer cells; Q699H and K700E mutations in SF3B1); assay: Cell viability assay (CellTiter-Glo, 72 hr), Panc 05.04 cells; format: cell-based; details: Panc 05.04 cells (mutant SF3B1); read-out: Panc 05.04 (mt SF3B1 cells), GI50
readout_kind: GI50 (nM)
# value in nM; strip the unit string

Lookup: If you can, please state the reported GI50 value of `C/C(=C\C=C\[C@@H](C)COC(=O)N1CCCC1(C)C)[C@H]1OC(=O)C[C@H](O)CC[C@@](C)(O)[C@@H](OC(=O)N2CCN(C3CCCCCC3)CC2)/C=C/[C@@H]1C` .
Found: 10.4

Lookup: I have this molecule here, C/C(=C\C=C\C(C)c1cccnc1)[C@H]1OC(=O)C[C@H](O)CC[C@@](C)(O)[C@@H](OC(=O)N2CCC(N3CCC(F)CC3)CC2)/C=C/[C@@H]1C (stereo partly drawn) , and I need its recorded GI50.
Found: 862

Lookup: I have this molecule here, `CCN(CC)C(=O)OC[C@H](C)/C=C/C=C(\C)[C@H]1OC(=O)C[C@H](O)CC[C@@](C)(O)[C@@H](OC(C)=O)/C=C/[C@@H]1C` , and I need its recorded GI50.
Found: 25

Lookup: Which GI50 is reported for this molecule? `C/C(=C\C=C\[C@@H](C)CO)[C@H]1OC(=O)C[C@H](O)CC[C@@](C)(O)[C@@H](OC(=O)N2CCN(C)CC2)/C=C/[C@@H]1C`
Found: 1390

Lookup: Endpoint output: GI50 of `C/C(=C\C=C\[C@@H](C)COC(=O)N1CCC[C@H]1CF)[C@H]1OC(=O)C[C@H](O)CC[C@@](C)(O)[C@@H](OC(=O)N2CCN(C)CC2)/C=C/[C@@H]1C` . Value?
Found: 2.25

Lookup: Given the molecule `C/C(=C\C=C\[C@@H](C)CN(C)C(=O)N1CCCC1)[C@H]1OC(=O)C[C@H](O)CC[C@@](C)(O)[C@@H](OC(=O)N2CCN(C3CCCCCC3)CC2)/C=C/[C@@H]1C` , what is its reported GI50?
Found: 23.5

Lookup: What does the data say about its GI50? Entry: `C/C(=C\C=C\[C@@H](C)CNC(=O)C1CCCC1)[C@H]1OC(=O)C[C@H](O)CC[C@@](C)(O)[C@@H](OC(=O)N2CCN(C3CCCCCC3)CC2)/C=C/[C@@H]1C`
Found: 53.3

Lookup: Which GI50 value belongs to `C/C(=C\C=C\[C@@H](C)COC(=O)N1CCC[C@H]1CO)[C@H]1OC(=O)C[C@H](O)CC[C@H](C)[C@@H](OC(=O)N2CCN(C)CC2)/C=C/[C@@H]1C` ?
Found: 4.36

Lookup: Name the recorded GI50 for C/C(=C\C=C\[C@@H](C)c1ccccn1)[C@H]1OC(=O)C[C@H](O)CC[C@@](C)(O)[C@@H](OC(=O)N2CCN(C3CCCCCC3)C(C)C2)/C=C/[C@@H]1C (stereo partly drawn) .
Found: 126

Lookup: Item `C/C(=C\C=C\[C@@H](C)COC(=O)N1CCCC12COC2)[C@H]1OC(=O)C[C@H](O)CC[C@@](C)(O)[C@@H](OC(=O)N2CCN(C)CC2)/C=C/[C@@H]1C` has what recorded GI50?
Found: 31.5

Lookup: I am curious: what GI50 value has been reported for COCc1ccccc1CCC(C)/C=C/C=C(\C)[C@H]1OC(=O)C[C@H](O)CC[C@@](C)(O)[C@@H](OC(C)=O)/C=C/[C@@H]1C (stereo partly drawn) ?
Found: 427

Lookup: Fill in the blank: the reported GI50 of `CCCN(C)C(=O)OC[C@H](C)/C=C/C=C(\C)[C@H]1OC(=O)C[C@H](O)CC[C@@](C)(O)[C@@H](OC(=O)N2CCN(C3CCCCCC3)CC2)/C=C/[C@@H]1C` is ____.
Found: 279

FYI, the data here is from patent US11926619B2.
